SYSTEM: Human CaV2.2 channels (Homo sapiens)
Construct: expressed in transfected cells
ASSAY_NAME: Fluorescent assay for CaV2.2 channels using potassium depolarization to induce channel opening (FLIPR, Fluo-4)
Format: cell-based
TEST_CONDITIONS: 3 μM test compound, 30 mM KCl, HEK293 cells stably expressing human CaV2.2; read-out: %-Inhib (CaV2.2) @3 μM @30 mM KCl
Provide the reported inhibition at 3 µM of each item.

Check out these entries, answers already filled in.
Cc1c(-c2ccc(Cl)cc2)c(C(=O)N(C)C2CCN(C)CC2)n(Cc2ccccc2)c1C(F)(F)F : > 95%
Cc1c(-c2ccc(Cl)cc2F)c(C(=O)N(C)C2CCOCC2)n(Cc2ccccc2)c1C(F)(F)F : > 95%
Cc1c(-c2ccc(C(F)(F)F)cc2)c(C(=O)N2CCOCC2)n(Cc2ccccc2)c1C(F)(F)F : 75 to 95%

# per-item lookup of inhibition at 3 µM; items listed below
1. Cc1c(-c2ccc(Cl)cc2)c(C(=O)NC2(CO)CC2)n(Cc2ccccc2)c1C(F)(F)F
2. CN(CC1CC1)C(=O)c1c(-c2ccc(Cl)cc2)cc(C(F)(F)F)n1Cc1ccccc1
3. Cc1c(-c2ccc(Cl)cc2)c(C(=O)N(C)C(C)(C)CCO)n(Cc2ccccc2)c1C(F)(F)F

Key:
["75 to 95%", "75 to 95%", "> 95%"]

# per-item lookup of inhibition at 3 µM; items listed below
1. Cc1cc(CN(C)C(=O)c2c(-c3ccc(Cl)cc3)cc(C(F)(F)F)n2Cc2ccccc2)no1
2. CN(C(=O)c1c(-c2ccc(Cl)cc2)cc(C(F)(F)F)n1Cc1ccccc1)C1CCOCC1

Key:
1. > 95%
2. > 95%

---

SYSTEM: Human CaV2.2 channels (Homo sapiens, UniProt Q00975)
Construct: expressed in transfected cells
Sequence (Q00975 whole entry): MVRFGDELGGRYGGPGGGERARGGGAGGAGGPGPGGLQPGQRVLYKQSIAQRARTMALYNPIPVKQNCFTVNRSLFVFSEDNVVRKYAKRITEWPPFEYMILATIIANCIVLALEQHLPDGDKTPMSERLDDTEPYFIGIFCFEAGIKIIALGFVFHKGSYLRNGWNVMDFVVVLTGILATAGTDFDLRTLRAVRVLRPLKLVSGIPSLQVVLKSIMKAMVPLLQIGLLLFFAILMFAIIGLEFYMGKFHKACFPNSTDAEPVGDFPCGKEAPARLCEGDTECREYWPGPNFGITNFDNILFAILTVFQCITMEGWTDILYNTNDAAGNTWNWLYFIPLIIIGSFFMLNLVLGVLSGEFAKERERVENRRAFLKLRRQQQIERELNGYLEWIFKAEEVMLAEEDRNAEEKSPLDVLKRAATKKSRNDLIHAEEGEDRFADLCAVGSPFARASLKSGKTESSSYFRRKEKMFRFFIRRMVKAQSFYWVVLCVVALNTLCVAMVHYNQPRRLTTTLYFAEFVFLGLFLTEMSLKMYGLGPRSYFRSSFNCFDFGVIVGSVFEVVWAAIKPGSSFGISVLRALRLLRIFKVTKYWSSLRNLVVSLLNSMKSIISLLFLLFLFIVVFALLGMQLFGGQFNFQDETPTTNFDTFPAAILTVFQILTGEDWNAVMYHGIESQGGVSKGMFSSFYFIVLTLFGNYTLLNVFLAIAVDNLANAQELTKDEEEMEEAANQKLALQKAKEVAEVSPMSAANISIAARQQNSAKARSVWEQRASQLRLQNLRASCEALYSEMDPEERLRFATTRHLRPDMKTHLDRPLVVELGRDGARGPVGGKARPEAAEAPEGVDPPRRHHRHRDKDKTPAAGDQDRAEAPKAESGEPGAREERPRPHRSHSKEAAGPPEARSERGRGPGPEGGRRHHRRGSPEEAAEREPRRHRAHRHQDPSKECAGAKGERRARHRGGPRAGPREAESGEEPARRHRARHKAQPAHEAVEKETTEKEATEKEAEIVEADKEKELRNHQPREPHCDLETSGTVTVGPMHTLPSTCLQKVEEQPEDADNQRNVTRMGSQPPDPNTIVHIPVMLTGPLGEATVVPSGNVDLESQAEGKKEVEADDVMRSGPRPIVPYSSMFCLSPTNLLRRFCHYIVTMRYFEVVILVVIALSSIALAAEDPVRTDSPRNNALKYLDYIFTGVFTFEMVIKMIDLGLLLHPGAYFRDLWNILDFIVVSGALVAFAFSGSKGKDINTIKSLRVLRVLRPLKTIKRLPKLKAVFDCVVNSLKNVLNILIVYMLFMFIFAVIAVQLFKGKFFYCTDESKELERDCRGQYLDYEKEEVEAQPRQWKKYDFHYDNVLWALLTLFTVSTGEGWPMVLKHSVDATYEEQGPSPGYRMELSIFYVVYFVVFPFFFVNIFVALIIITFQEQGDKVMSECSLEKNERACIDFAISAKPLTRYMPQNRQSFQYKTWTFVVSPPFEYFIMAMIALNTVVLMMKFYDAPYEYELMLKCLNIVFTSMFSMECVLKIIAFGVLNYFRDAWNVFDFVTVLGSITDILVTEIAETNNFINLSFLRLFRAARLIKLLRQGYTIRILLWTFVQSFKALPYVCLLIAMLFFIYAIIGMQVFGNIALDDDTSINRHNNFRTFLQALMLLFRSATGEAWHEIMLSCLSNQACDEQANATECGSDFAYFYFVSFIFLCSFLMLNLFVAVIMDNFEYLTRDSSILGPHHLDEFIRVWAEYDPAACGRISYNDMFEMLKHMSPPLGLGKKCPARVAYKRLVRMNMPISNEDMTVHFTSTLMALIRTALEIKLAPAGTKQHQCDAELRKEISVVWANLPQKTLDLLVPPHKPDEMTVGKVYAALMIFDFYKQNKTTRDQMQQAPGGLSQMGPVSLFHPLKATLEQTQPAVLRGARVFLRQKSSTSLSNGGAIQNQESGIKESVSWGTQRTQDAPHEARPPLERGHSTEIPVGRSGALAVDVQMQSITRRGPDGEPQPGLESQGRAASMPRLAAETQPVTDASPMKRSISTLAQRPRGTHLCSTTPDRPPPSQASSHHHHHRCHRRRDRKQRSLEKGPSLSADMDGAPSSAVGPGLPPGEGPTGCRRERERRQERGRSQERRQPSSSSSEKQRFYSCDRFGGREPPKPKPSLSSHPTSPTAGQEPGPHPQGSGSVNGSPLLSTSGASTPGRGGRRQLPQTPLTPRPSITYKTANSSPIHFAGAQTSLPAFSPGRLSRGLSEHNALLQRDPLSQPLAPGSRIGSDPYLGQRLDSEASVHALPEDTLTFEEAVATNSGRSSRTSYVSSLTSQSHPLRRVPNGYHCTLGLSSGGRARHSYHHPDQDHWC
Sequence (P54289 25-1103, further chain): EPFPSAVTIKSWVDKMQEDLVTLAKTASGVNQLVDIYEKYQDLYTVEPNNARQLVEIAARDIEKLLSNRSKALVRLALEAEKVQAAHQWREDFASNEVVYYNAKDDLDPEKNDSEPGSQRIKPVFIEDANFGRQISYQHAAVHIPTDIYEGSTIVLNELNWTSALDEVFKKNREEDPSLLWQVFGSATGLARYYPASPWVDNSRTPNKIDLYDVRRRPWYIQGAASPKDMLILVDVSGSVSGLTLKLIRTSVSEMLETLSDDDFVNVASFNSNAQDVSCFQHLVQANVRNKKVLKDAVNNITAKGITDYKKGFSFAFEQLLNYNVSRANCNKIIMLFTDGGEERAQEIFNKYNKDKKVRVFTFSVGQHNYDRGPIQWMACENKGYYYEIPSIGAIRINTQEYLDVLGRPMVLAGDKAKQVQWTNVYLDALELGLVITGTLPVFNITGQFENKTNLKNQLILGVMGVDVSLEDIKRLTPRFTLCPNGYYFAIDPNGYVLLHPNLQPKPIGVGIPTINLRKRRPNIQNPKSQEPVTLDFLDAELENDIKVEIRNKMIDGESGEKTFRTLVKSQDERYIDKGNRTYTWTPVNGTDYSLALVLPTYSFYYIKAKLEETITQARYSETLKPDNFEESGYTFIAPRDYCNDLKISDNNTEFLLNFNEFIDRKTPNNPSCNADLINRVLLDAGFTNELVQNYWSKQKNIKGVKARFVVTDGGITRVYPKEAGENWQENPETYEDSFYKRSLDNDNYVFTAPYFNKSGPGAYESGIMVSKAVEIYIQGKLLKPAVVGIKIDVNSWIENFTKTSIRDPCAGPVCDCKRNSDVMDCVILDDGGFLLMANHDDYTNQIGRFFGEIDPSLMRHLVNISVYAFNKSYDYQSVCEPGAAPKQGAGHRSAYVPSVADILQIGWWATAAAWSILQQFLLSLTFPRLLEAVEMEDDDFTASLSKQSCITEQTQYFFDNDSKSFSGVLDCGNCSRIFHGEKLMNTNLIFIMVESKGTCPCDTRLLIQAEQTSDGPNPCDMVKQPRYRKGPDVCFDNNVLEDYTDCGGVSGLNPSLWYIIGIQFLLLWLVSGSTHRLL
Sequence (P54284 whole entry, further chain): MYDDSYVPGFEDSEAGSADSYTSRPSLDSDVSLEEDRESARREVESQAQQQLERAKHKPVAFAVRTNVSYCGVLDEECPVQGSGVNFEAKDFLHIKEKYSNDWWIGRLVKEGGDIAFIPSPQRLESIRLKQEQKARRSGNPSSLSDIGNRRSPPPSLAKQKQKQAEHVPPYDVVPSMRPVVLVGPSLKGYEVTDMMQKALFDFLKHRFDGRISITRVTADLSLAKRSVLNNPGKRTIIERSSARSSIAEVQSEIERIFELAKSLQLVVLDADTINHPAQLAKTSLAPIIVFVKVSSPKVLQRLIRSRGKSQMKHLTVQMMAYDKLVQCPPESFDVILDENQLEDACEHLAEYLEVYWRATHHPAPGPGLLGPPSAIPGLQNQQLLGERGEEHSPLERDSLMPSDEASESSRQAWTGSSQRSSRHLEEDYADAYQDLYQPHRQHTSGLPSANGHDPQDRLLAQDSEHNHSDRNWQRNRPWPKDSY
ASSAY_NAME: Fluorescent assay for CaV2.2 channels using potassium depolarization to induce channel opening (FLIPR, Fluo-4)
Assay type: cell-based
TEST_CONDITIONS: 3 μM test compound, 30 mM KCl, HEK293 cells stably expressing human CaV2.2; read-out: %-Inhib (CaV2.2) @3 μM @30 mM KCl
Provide the reported inhibition at 3 µM of each item.

Check out these entries, answers already filled in.
Cc1c(-c2ccc(Cl)cc2)c(C(=O)N2CCC(O)CC2)n(Cc2ccccc2)c1C(F)(F)F [SC-17] : > 95%
Cc1c(-c2ccc(C(F)(F)F)cc2)c(C(=O)N(C)CCS(C)(=O)=O)n(Cc2ccccc2)c1C(F)(F)F [SC-228] : 75 to 95%
Cc1c(-c2ccc(Cl)cc2F)c(C(=O)N2CCS(=O)(=O)C(C)(C)C2)n(Cc2ccccc2)c1C(F)(F)F [SC-170] : > 95%
COc1cccc(-n2c(C(=O)N3CC(F)(F)C3)c(-c3ccc(Cl)cc3)c(C)c2C(F)(F)F)c1 [SC-32] : 75 to 95%
O=C(c1c(-c2ccc(Cl)cc2)cc(C(F)(F)F)n1Cc1ccccc1)N1CCC(CO)C1 (stereo not shown) [SC-181] : 75 to 95%

# per-item lookup of inhibition at 3 µM; items listed below
1. CN(CCN1CCCC1)CC(C)(C)CN(C)C(=O)c1c(-c2ccc(Cl)cc2)cc(C(F)(F)F)n1Cc1ccccc1 [SC-203]
2. CN(CCS(C)(=O)=O)C(=O)c1c(-c2ccc(Cl)cc2F)cc(C(F)(F)F)n1Cc1ccccc1 [SC-90]

Key:
1. > 95%
2. > 95%

---

Provide the reported inhibition at 3 µM of each item.
SYSTEM: Human CaV2.2 channels (Homo sapiens)
Construct: expressed in transfected cells
ASSAY_NAME: Fluorescent assay for CaV2.2 channels using potassium depolarization to induce channel opening (FLIPR, Fluo-4)
Assay type: cell-based
TEST_CONDITIONS: 3 μM test compound, 30 mM KCl, HEK293 cells stably expressing human CaV2.2; read-out: %-Inhib (CaV2.2) @3 μM @30 mM KCl

Cc1c(-c2ccc(Cl)cc2F)c(C(=O)N[C@H](C)C(C)(C)C)n(Cc2ccccc2)c1C(F)(F)F : 75 to 95%
COC1(CNC(=O)c2c(-c3ccc(Cl)cc3)c(C)c(C(F)(F)F)n2Cc2ccccc2)CC1 : > 95%

# per-item lookup of inhibition at 3 µM; items listed below
1. O=C(c1c(-c2ccc(Cl)cc2F)cc(C(F)(F)F)n1Cc1ccccc1)N1CCOCC1
2. Cc1c(-c2ccc(Cl)cc2)c(C(=O)N(C)CC(C)(C)O)n(Cc2cccc(Cl)c2)c1C(F)(F)F
3. Cc1c(-c2ccc(Cl)cc2)c(C(=O)N(C)CCS(=O)(=O)C(C)C)n(Cc2ccccc2)c1C(F)(F)F
4. Cc1c(-c2ccc(Cl)cc2F)c(C(=O)N2CCC(CO)C2)n(Cc2ccccc2)c1C(F)(F)F (stereo not drawn)

Key:
1: > 95%; 2: > 95%; 3: > 95%; 4: > 95%

---

SYSTEM: Human CaV2.2 channels (Homo sapiens, UniProt Q00975)
Construct: expressed in transfected cells
ASSAY_NAME: Fluorescent assay for CaV2.2 channels using potassium depolarization to induce channel opening (FLIPR, Fluo-4)
Format: cell-based
TEST_CONDITIONS: 3 μM test compound, 30 mM KCl, HEK293 cells stably expressing human CaV2.2; read-out: %-Inhib (CaV2.2) @3 μM @30 mM KCl
Provide the reported inhibition at 3 µM of each item.

Cc1c(-c2ccc(F)c(Cl)c2)c(C(=O)N(C)CCS(C)(=O)=O)n(Cc2ccccc2)c1C(F)(F)F : > 95%

# per-item lookup of inhibition at 3 µM; items listed below
1. Cc1cnc(CN(C)C(=O)c2c(-c3ccc(Cl)cc3)cc(C(F)(F)F)n2Cc2ccccc2)cn1
2. Cc1c(-c2ccc(Cl)cc2)c(C(=O)N(C)C(C)CS(C)(=O)=O)n(Cc2ccccc2)c1C(F)(F)F (stereo not shown)
3. Cc1c(-c2ccc(F)c(Cl)c2)c(C(=O)N(C)CC(C)(C)C)n(Cc2ccccc2)c1C(F)(F)F

Key:
1. > 95%
2. > 95%
3. 30 to 40%

---

SYSTEM: Human CaV2.2 channels (Homo sapiens)
Construct: expressed in transfected cells
ASSAY_NAME: Fluorescent assay for CaV2.2 channels using potassium depolarization to induce channel opening (FLIPR, Fluo-4)
Format: cell-based
TEST_CONDITIONS: 3 μM test compound, 30 mM KCl, HEK293 cells stably expressing human CaV2.2; read-out: %-Inhib (CaV2.2) @3 μM @30 mM KCl
READOUT_LABEL: inhibition at 3 µM

Check out these entries, answers already filled in.
Cc1c(-c2ccc(Cl)cc2)c(C(=O)N(C)CCC2CCCO2)n(Cc2ccccc2)c1C(F)(F)F (stereo not shown) [SC-133] : > 95%
Cc1c(-c2ccc(Cl)cc2)c(C(=O)N2CCOC(CO)C2)n(Cc2ccccc2)c1C(F)(F)F (stereo not shown) [SC-20] : 75 to 95%
Cc1c(-c2ccc(C(F)(F)F)cc2)c(C(=O)N2CCOC(C)(C)C2)n(Cc2ccccc2)c1C(F)(F)F [SC-234] : 75 to 95%
Cc1c(-c2ccc(F)c(Cl)c2)c(C(=O)N2CCOCC2)n(Cc2ccccc2)c1C(F)(F)F [SC-104] : 75 to 95%
Cc1c(-c2ccc(OC(F)(F)F)cc2)c(C(=O)N(C)CCS(C)(=O)=O)n(Cc2ccccc2)c1C(F)(F)F [SC-236] : > 95%

# per-item lookup of inhibition at 3 µM; items listed below
1. Cc1c(-c2ccc(Cl)cc2)c(C(=O)N(C)C2(CO)CC2)n(Cc2ccccc2)c1C(F)(F)F [SC-48]
2. Cc1c(-c2ccc(Cl)cc2)c(C(=O)N(C)CC(C)(C)CO)n(Cc2ccccc2)c1C(F)(F)F [SC-106]
3. Cc1c(-c2ccc(F)cc2)c(C(=O)N2CCOC(C)(C)C2)n(Cc2ccccc2)c1C(F)(F)F [SC-225]
4. CCOC(=O)C1(N(C)C(=O)c2c(-c3ccc(Cl)cc3)c(C)c(C(F)(F)F)n2Cc2ccccc2)CC1 [SC-52]
5. CN(CC(C)(C)O)C(=O)c1c(-c2ccc(Cl)cc2F)cc(C(F)(F)F)n1Cc1ccccc1 [SC-87]
6. Cc1c(-c2ccc(C(F)(F)F)cc2)c(C(=O)N(C)CC(C)(C)C)n(Cc2ccccc2)c1C(F)(F)F [SC-233]
7. Cc1c(-c2ccc(F)c(Cl)c2)c(C(=O)N(C)C2CC2)n(Cc2ccccc2)c1C(F)(F)F [SC-254]
8. CCS(=O)(=O)CCN(C)C(=O)c1c(-c2ccc(Cl)cc2)c(C)c(C(F)(F)F)n1Cc1ccccc1 [SC-132]

Key:
1. > 95%
2. > 95%
3. > 95%
4. > 95%
5. > 95%
6. 30 to 40%
7. 75 to 95%
8. > 95%

# per-item lookup of inhibition at 3 µM; items listed below
1. Cc1c(-c2ccc(C(F)(F)F)cc2)c(C(=O)N(C)C2CC2)n(Cc2ccccc2)c1C(F)(F)F [SC-230]
2. Cc1c(-c2ccc(Cl)cc2)c(C(=O)N(C)C2CCS(=O)(=O)CC2)n(Cc2ccccc2)c1C(F)(F)F [SC-131]

Key:
40 to 75%
> 95%
